Test system: HepG2
Assay overview: Cytotoxicity against human HepG2 cells assessed as growth inhibition after 48 hrs by MTT assay
Format: cell-based
Condition context: HepG2, 48 h
Listed here are compounds together with their documented IC50.
Express it in µM; write the number only.

>  <Structure as smiles>
c1ccc(-c2cc(NCCCN3CCOCC3)c3ccccc3n2)cc1

>  <Recorded result>
30.1

$$$$
>  <Structure as smiles>
c1ccc(-c2cc(N3CCCC3)c3ccccc3n2)cc1

>  <Recorded result>
30.9

$$$$
>  <Structure as smiles>
c1ccc2c(NCCCN3CCOCC3)cc(-c3ccc4c(c3)OCO4)nc2c1

>  <Recorded result>
17.7

$$$$
>  <Structure as smiles>
OCCCCCCNc1cc(-c2ccccc2)nc2ccccc12

>  <Recorded result>
44.2

$$$$
>  <Structure as smiles>
c1ccc(-c2cc(NCCCN3CCCCC3)c3ccccc3n2)cc1

>  <Recorded result>
25.7

$$$$

Note: attention shifts to another entry.
[in] What reported IC50 corresponds to `c1ccc2c(NCCCN3CCCCC3)cc(-c3ccc4c(c3)OCO4)nc2c1` on HepG2?
[out] 9.21

====

Assay overview: Cytotoxicity against rat PC12 cells assessed as inhibition of cell viability at 10 uM after 48 hrs by MTT assay relative to control
Type: cell-based, PC-12
Condition context: read-out: INH
Listed here are compounds together with their documented cytotoxicity at 48 h, 10 µM.
Express it in %; write the number only.

>  <Structure as smiles>
OCCCCNc1cc(-c2ccc3c(c2)OCO3)nc2ccccc12

>  <cytotoxicity at 48 h, 10 µM / %>
14.7

$$$$
>  <Structure as smiles>
CCCCNc1cc(-c2ccc3c(c2)OCO3)nc2ccccc12

>  <cytotoxicity at 48 h, 10 µM / %>
11.2

$$$$
>  <Structure as smiles>
c1ccc2c(NCCCN3CCCCC3)cc(-c3ccc4c(c3)OCO4)nc2c1

>  <cytotoxicity at 48 h, 10 µM / %>
71.5

$$$$

[in] Requested field: cytotoxicity at 48 h, 10 µM. Item: `c1ccc(-c2cc(NCCCN3CCCCC3)c3ccccc3n2)cc1`
[out] 11.6

[in] Next entry: `OCCCNc1cc(-c2ccc3c(c2)OCO3)nc2ccccc12`
[out] 8.38

====

Tested on: HepG2
Assay overview: Cytotoxicity against human HepG2 cells assessed as growth inhibition after 48 hrs by MTT assay
Format: cell-based
Condition context: HepG2, 48 h
Quantity kind: IC50

>  <Compound>
OCCCCCCNc1cc(-c2ccc3c(c2)OCO3)nc2ccccc12

>  <Experimental target>
HepG2

>  <Recorded result>
> 50 µM

$$$$
>  <Compound>
OCCCNc1cc(-c2ccc3c(c2)OCO3)nc2ccccc12

>  <Experimental target>
HepG2

>  <Recorded result>
> 50 µM

$$$$
>  <Compound>
OCCCCNc1cc(-c2ccccc2)nc2ccccc12

>  <Experimental target>
HepG2

>  <Recorded result>
> 50 µM

$$$$
>  <Compound>
COc1cc(-c2ccc3c(c2)OCO3)nc2ccccc12 [GRAVEOLININE]

>  <Experimental target>
HepG2

>  <Recorded result>
> 50 µM

$$$$
>  <Compound>
OCCCNc1cc(-c2ccccc2)nc2ccccc12

>  <Experimental target>
HepG2

>  <Recorded result>
> 50 µM

$$$$

[in] What reported IC50 corresponds to `c1ccc2c(N3CCCCC3)cc(-c3ccc4c(c3)OCO4)nc2c1` on HepG2?
[out] > 50 µM

[in] Next entry: `c1ccc2c(N3CCCC3)cc(-c3ccc4c(c3)OCO4)nc2c1`
[out] > 50 µM

[in] Next entry: `CCCCNc1cc(-c2ccc3c(c2)OCO3)nc2ccccc12`
[out] > 50 µM

[in] Next entry: `OCCCCNc1cc(-c2ccc3c(c2)OCO3)nc2ccccc12`
[out] > 50 µM
